Overview of reported Pmel+ (sgRNA Log(2) fold change, Pmel-1 selection versus control T cells) across a group of sequences:
- System: B16F10-Cas9 cells co-cultured with Pmel-1 T cells
- PROTOCOL: Genome-scale CRISPR-Cas9 screen, selection with Pmel-1 T cells
- Format: cell-based, mouse
- REPORTED_CONDITIONS: Table 3; B16F10-Cas9 cells pre-treated with IFNγ, co-cultured with Pmel-1 T cells 1:1 for three days; negative = depleted, positive = enriched
Just the number, please, no unit after it.

Solved entries (count: 2):
{"INPUT_SEQUENCE": "TACTGATCATAAACGAACCA (chemistry not fully specified)", "VALUE": 0.25}
{"INPUT_SEQUENCE": "ACTTCAAAGTCCATGGCACA (chemistry not fully specified)", "VALUE": -0.63}

Name the recorded Pmel+ (sgRNA Log(2) fold change, Pmel-1 selection versus control T cells) of the item GGACAAGACATGGAGACAGA (chemistry not fully specified) in your answer.
0.83

Name the recorded Pmel+ (sgRNA Log(2) fold change, Pmel-1 selection versus control T cells) of the item ATACACAACTATGATGCCAT (chemistry not fully specified) in your answer.
5.64

Name the recorded Pmel+ (sgRNA Log(2) fold change, Pmel-1 selection versus control T cells) of the item ACAGCCTCCCAATATCTCAG (chemistry not fully specified) in your answer.
-0.54

====

Overview of reported Pmel+ (sgRNA Log(2) fold change, Pmel-1 selection versus control T cells) across a group of sequences:
- System: B16F10-Cas9 cells co-cultured with Pmel-1 T cells
- PROTOCOL: Genome-scale CRISPR-Cas9 screen, selection with Pmel-1 T cells
- Assay type: cell-based, mouse
- REPORTED_CONDITIONS: Table 3; B16F10-Cas9 cells pre-treated with IFNγ, co-cultured with Pmel-1 T cells 1:1 for three days; negative = depleted, positive = enriched

{"INPUT_SEQUENCE": "TCTTCAGGAGAGAATACCAT (chemistry not fully specified)", "ASSAY_SYSTEM": "B16F10-Cas9 cells co-cultured with Pmel-1 T cells", "VALUE": 3.86}

# return Pmel+ (sgRNA Log(2) fold change, Pmel-1 selection versus control T cells) for GCTCACCACGGGCTGCAACG (chemistry not fully specified) , test system: B16F10-Cas9 cells co-cultured with Pmel-1 T cells
2.34

# return Pmel+ (sgRNA Log(2) fold change, Pmel-1 selection versus control T cells) for ACGACGAGGAGTTCGAATAC (chemistry not fully specified) , test system: B16F10-Cas9 cells co-cultured with Pmel-1 T cells
-0.86

# return Pmel+ (sgRNA Log(2) fold change, Pmel-1 selection versus control T cells) for CTTCAGATCTCTCTCGAATG (chemistry not fully specified) , test system: B16F10-Cas9 cells co-cultured with Pmel-1 T cells
-2.11

# return Pmel+ (sgRNA Log(2) fold change, Pmel-1 selection versus control T cells) for GCTGCAGAGGCAGTTTGATG (chemistry not fully specified) , test system: B16F10-Cas9 cells co-cultured with Pmel-1 T cells
-0.70

# return Pmel+ (sgRNA Log(2) fold change, Pmel-1 selection versus control T cells) for TCATAGCCAGAGCATACTCT (chemistry not fully specified) , test system: B16F10-Cas9 cells co-cultured with Pmel-1 T cells
-1.33

# return Pmel+ (sgRNA Log(2) fold change, Pmel-1 selection versus control T cells) for TGATAATAGATAAACGACCA (chemistry not fully specified) , test system: B16F10-Cas9 cells co-cultured with Pmel-1 T cells
0.05

====

Overview of reported Pmel+ (sgRNA Log(2) fold change, Pmel-1 selection versus control T cells) across a group of sequences:
- Tested on: B16F10-Cas9 cells co-cultured with Pmel-1 T cells
- PROTOCOL: Genome-scale CRISPR-Cas9 screen, selection with Pmel-1 T cells
- Assay type: cell-based, mouse
- REPORTED_CONDITIONS: Table 3; B16F10-Cas9 cells pre-treated with IFNγ, co-cultured with Pmel-1 T cells 1:1 for three days; negative = depleted, positive = enriched
Just the number, please, no unit after it.

Solved entries (count: 2):
{"INPUT_SEQUENCE": "ACTTCTGATTGGCGATTCTG (chemistry not fully specified)", "VALUE": -2.49}
{"INPUT_SEQUENCE": "AACTTCAGTAGCGGGCGACG (chemistry not fully specified)", "VALUE": 0.00}

// next entry
Name the recorded Pmel+ (sgRNA Log(2) fold change, Pmel-1 selection versus control T cells) of the item ACAGATACGGAGTGTCCCGT (chemistry not fully specified) in your answer.
1.90

====

Overview of reported OT1 (sgRNA Log(2) fold change, OT-I selection versus control T cells) across a group of sequences:
- System: B16F10-Cas9 cells pulsed with SIINFEKL peptide, co-cultured with OT-I T cells
- PROTOCOL: Genome-scale CRISPR-Cas9 screen, selection with OT-I T cells
- Type: cell-based, mouse
- REPORTED_CONDITIONS: Table 3; B16F10-Cas9 cells pulsed with SIINFEKL, co-cultured with OT-I T cells 1:1 for one day; negative = depleted, positive = enriched
Just the number, please, no unit after it.

Solved entries (count: 8):
{"INPUT_SEQUENCE": "TACTGATCATAAACGAACCA (chemistry not fully specified)", "VALUE": -3.34}
{"INPUT_SEQUENCE": "TCATCTTCGGAGGGCTCAAG (chemistry not fully specified)", "VALUE": 0.18}
{"INPUT_SEQUENCE": "GCCAACATCTGCTTACTCGC (chemistry not fully specified)", "VALUE": -2.55}
{"INPUT_SEQUENCE": "ACTAATGGACTCGCACACGT (chemistry not fully specified)", "VALUE": -0.42}
{"INPUT_SEQUENCE": "CGATGCCATTCGAATGACAG (chemistry not fully specified)", "VALUE": 1.57}
{"INPUT_SEQUENCE": "TTAATGACGAGCTCGTGGAG (chemistry not fully specified)", "VALUE": 2.25}
{"INPUT_SEQUENCE": "TTTACAATCCTCCAAAGTCG (chemistry not fully specified)", "VALUE": -3.13}
{"INPUT_SEQUENCE": "GCAAGAGGTTATCAAACACG (chemistry not fully specified)", "VALUE": -2.17}

Name the recorded OT1 (sgRNA Log(2) fold change, OT-I selection versus control T cells) of the item TGAATAAATCCATCAGACAG (chemistry not fully specified) in your answer.
2.46

Name the recorded OT1 (sgRNA Log(2) fold change, OT-I selection versus control T cells) of the item GAAGTAAAGGGATTTAACAG (chemistry not fully specified) in your answer.
-2.59

====

- System: B16F10-Cas9 cells pulsed with SIINFEKL peptide, co-cultured with OT-I T cells
- PROTOCOL: Genome-scale CRISPR-Cas9 screen, selection with OT-I T cells
- Assay type: cell-based, mouse
- REPORTED_CONDITIONS: Table 3; B16F10-Cas9 cells pulsed with SIINFEKL, co-cultured with OT-I T cells 1:1 for one day; negative = depleted, positive = enriched
Where OT1 (sgRNA Log(2) fold change, OT-I selection versus control T cells) equals or exceeds -2, the correct label is True; where it does not, the label is False.

Take a look at these entries with their results.
{"INPUT_SEQUENCE": "TTCAAAGCAAGGCTCTACTG (chemistry not fully specified)", "ASSAY_SYSTEM": "B16F10-Cas9 cells pulsed with SIINFEKL peptide, co-cultured with OT-I T cells", "CLASSIFICATION": "False"}
{"INPUT_SEQUENCE": "TAAGCGTTGTTGACTACATG (chemistry not fully specified)", "ASSAY_SYSTEM": "B16F10-Cas9 cells pulsed with SIINFEKL peptide, co-cultured with OT-I T cells", "CLASSIFICATION": "False"}
{"INPUT_SEQUENCE": "TCAGGATGCTGTGATAAGCG (chemistry not fully specified)", "ASSAY_SYSTEM": "B16F10-Cas9 cells pulsed with SIINFEKL peptide, co-cultured with OT-I T cells", "CLASSIFICATION": "True"}
{"INPUT_SEQUENCE": "TCCGAACCGAATCATCACTG (chemistry not fully specified)", "ASSAY_SYSTEM": "B16F10-Cas9 cells pulsed with SIINFEKL peptide, co-cultured with OT-I T cells", "CLASSIFICATION": "True"}
{"INPUT_SEQUENCE": "TATGGAGCGGTGTATGCCCG (chemistry not fully specified)", "ASSAY_SYSTEM": "B16F10-Cas9 cells pulsed with SIINFEKL peptide, co-cultured with OT-I T cells", "CLASSIFICATION": "False"}

API: the following record is the query input.
Assess whether reported OT1 (sgRNA Log(2) fold change, OT-I selection versus control T cells) for CTGCAGCATATCGTCAACCA (chemistry not fully specified) sits at -2 or higher.
False

Data origin, for the record: patent US11820822B2
